target.or.test.system: 5-hydroxytryptamine receptor 1A (Homo sapiens) (UniProt P08908)
Sequence (P08908 whole entry, looked up): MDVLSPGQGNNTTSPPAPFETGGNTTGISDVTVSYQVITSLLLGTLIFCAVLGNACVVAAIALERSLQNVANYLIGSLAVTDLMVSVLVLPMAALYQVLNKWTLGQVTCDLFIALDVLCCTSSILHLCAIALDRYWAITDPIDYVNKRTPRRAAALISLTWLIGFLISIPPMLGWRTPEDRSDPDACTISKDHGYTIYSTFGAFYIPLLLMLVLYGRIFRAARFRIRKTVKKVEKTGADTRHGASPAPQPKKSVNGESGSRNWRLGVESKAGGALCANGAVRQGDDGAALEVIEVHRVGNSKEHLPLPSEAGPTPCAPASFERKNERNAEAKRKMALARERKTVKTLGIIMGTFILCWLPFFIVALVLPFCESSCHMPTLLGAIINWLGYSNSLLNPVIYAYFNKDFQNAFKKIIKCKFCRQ
protocol.notes: human 5-HT1a receptor antagonists, primary screen, cell-based, CHO, Ga15 NFAT-bla reporter (AID 612);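 also: receptor stimulated by 5-CT agonist at 100 nM near EC80; beta-lactamase reporter measured by ratiometric fluorescence of a cleavable substrate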
particulars: CHO 5-HT1a Ga15 NFAT-bla reporter, antagonist mode; at 10 µM; active compounds read high
In all, about 62,000 compounds went through this assay and about 420 (0.68%) were called active. This is one part of a sample in which actives are shown more often than they occur.
// inhibition lookup, one value per entry
Could you give me the number in %? Just the number is fine.

>>> recorded_value("CCN1CCN(Cc2c(O)ccc3c(=O)c(-c4ccc(OC)c(OC)c4)c(C(F)(F)F)oc23)CC1")
4.3
>>> recorded_value("Cc1cc(NC(=O)CCC(=O)N(c2cccc(F)c2)C(C(=O)NC2CCCC2)c2ccncc2)no1 (stereo not given)")
-3.5
>>> recorded_value("Cc1noc(C)c1S(=O)(=O)NCCc1ccc(S(N)(=O)=O)cc1")
-7.6
>>> recorded_value("CC1CSc2nnc(CCc3ccccc3)n21 (stereo not given)")
5.7

Next item in the queue.
response.value for CN1C(=O)CC(N2CCN(c3ccccn3)CC2)C1=O (stereo not given) (field: inhibition) = -2.2
